- Measured On: Thromboxane A2 receptor (Homo sapiens, UniProt P21731)
- Sequence (P21731 whole entry): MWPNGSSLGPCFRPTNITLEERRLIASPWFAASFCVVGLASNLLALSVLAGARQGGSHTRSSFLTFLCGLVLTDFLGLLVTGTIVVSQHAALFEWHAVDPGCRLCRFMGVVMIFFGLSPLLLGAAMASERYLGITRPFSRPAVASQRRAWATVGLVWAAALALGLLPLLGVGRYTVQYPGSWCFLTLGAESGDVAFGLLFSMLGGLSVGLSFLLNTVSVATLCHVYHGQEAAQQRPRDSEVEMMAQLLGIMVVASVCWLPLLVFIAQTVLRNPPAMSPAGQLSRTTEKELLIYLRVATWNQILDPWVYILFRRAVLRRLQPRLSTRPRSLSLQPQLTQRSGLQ
- Protocol Text: TXA2 receptor antagonism, measured by the displacement of [3H]SQ29,548 from the PGH-2/TXA-2 receptor on human platelets
- Format: functional
Listed here are compounds together with their documented IC50.
Measurement Type: IC50

INSERT INTO measurements (smiles_structure, measurement) VALUES
  ('O=C(O)CCCCO/N=C(/c1cccc(C(F)(F)F)c1)c1ncccn1', '52 µM'),
  ('O=C(O)CCCCCO/N=C(\c1ccnnc1)c1cccc(C(F)(F)F)c1', '21 µM'),
  ('O=C(O)CCCCO/N=C(\c1cccc(C(F)(F)F)c1)c1cnccn1', '11 µM'),
  ('O=C(O)CCCCO/N=C(\c1ccccc1)c1ccncn1', '30 µM'),
  ('O=C(O)CCCCO/N=C(\c1cncnc1)c1cccc(C(F)(F)F)c1', '0.36 µM'),
  ('O=C(O)CCCCO/N=C(/c1ccccc1)c1ccnnc1', '13 µM'),
  ('O=C(O)CCCCO/N=C(/c1ccccc1)c1cccnn1', '71 µM'),
  ('O=C(O)CCCCO/N=C(\c1ccccc1)c1cncnc1', '20 µM'),
  ('O=C(O)CCCCO/N=C(\c1cccc(C(F)(F)F)c1)c1ccncn1', '1.4 µM'),
  ('O=C(O)CCCCO/N=C(\c1cccc(C(F)(F)F)c1)c1cccnn1', '10 µM'),
  ('O=C(O)CCCCO/N=C(/c1cncnc1)c1cccc(C(F)(F)F)c1', '1.5 µM');

All values here come from ChEMBL document CHEMBL1129433.
